biological target: AAK1 (full length human) (Homo sapiens, UniProt Q2M2I8); construct: HA; expressed in transfected cells; host or cells: HEK293F; test: HEK281 Cell-Based Assay (HEK293F cells transfected with AAK1 and AP2M1; phospho-mu2 Western blot); conditions: 3 h, listed as IC50 ranges
Sequence (Q2M2I8 whole entry): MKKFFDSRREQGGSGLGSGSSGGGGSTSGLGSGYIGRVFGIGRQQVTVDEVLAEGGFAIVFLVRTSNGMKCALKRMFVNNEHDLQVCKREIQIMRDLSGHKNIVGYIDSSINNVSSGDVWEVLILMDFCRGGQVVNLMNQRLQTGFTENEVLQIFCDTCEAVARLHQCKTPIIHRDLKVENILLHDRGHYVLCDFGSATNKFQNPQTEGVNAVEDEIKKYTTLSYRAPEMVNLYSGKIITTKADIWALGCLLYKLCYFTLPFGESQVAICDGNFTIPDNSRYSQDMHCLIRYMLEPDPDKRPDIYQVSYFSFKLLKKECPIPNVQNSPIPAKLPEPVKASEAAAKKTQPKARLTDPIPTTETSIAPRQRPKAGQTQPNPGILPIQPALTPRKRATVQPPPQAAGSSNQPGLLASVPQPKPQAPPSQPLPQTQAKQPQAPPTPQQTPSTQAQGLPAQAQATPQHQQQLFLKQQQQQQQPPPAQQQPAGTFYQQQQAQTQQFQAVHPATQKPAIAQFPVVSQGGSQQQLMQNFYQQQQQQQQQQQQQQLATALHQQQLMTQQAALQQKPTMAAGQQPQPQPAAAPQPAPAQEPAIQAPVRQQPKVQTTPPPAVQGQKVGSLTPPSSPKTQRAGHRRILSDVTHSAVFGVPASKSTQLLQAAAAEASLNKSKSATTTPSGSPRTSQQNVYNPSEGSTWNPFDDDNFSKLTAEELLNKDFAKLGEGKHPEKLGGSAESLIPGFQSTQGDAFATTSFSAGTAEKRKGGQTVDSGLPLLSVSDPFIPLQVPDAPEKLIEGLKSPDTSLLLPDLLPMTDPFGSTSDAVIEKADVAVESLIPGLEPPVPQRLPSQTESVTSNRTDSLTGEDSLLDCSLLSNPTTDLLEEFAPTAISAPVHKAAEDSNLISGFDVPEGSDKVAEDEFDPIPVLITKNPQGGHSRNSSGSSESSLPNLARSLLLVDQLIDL
pIC50: −log10 of the molar value.
readout-kind: pIC50

Recorded results for 4 molecules are shown here.
molecule: COC(=O)Nc1cc2c(cn1)COc1cc(OC[C@@H](N)CC(C)C)ccc1-2
target-under-test: AAK1 (full length human) (Homo sapiens, UniProt Q2M2I8)
pIC50: 8.00 to 9.00

molecule: CC(=O)Nc1cc2c(cn1)COc1c-2ccc(OC[C@@H](N)CC(C)C)c1C(F)F
target-under-test: AAK1 (full length human) (Homo sapiens, UniProt Q2M2I8)
pIC50: 8.00 to 9.00

molecule: CC(=O)Nc1nccc2c1COc1cc(OC[C@@H](N)CC(C)C)ccc1-2
target-under-test: AAK1 (full length human) (Homo sapiens, UniProt Q2M2I8)
pIC50: 7.00 to 8.00

molecule: CC(C)C[C@H](N)COc1cc2c(cc1Cl)-c1ccncc1C(C(F)(F)F)O2 (mixture of isomers)
target-under-test: AAK1 (full length human) (Homo sapiens, UniProt Q2M2I8)
pIC50: 8.00 to 9.00

Lab note: measured pIC50 of CC(C)C[C@H](N)COc1cc2c(cc1Br)-c1ccncc1C(C(F)(F)F)O2 (mixture of isomers) was 8.00 to 9.00

What the record says about CC(C)C[C@H](N)COc1ccc2c(c1)OCc1c-2ccnc1N : pIC50 is 8.00 to 9.00

// CCC1Oc2cc(OC[C@@H](N)CC(C)C)ccc2-c2ccncc21 (mixture of isomers) [Example 10] : pIC50 value = 7.00 to 8.00

Item: CC1Oc2cc(OC[C@@H](N)CC3CCCC3)ccc2-c2ccncc21 (mixture of isomers) | pIC50: 7.00 to 8.00

Source: patent US8703953B2
